Plant response rating, Kochia reference
Tested on: Kochia (Kochia scoparia)
Assay: Test A postemergence
Type: in vivo
Conditions: 125 g ai/ha, postemergence; visual rating after approx. 10 d, 0 to 100 scale (0 no effect, 100 complete control)

[
  {
    "molecule": "CN1CC(c2cc(F)cc(F)c2)C(C(=O)Nc2cccc3c2CCC3)C1=O (stereo not shown) [Compound 659]",
    "target_or_system": "Kochia (Kochia scoparia)",
    "Plant response rating, Kochia": 20
  }
]

Given item O=C1NCC(c2ccsc2Cl)C1C(=O)Nc1cccc(F)c1F (stereo not shown) [Compound 600] , the value recorded as its Plant response rating, Kochia is 0

Given item CN1CC(c2cc(F)cc(F)c2)C(C(=O)Nc2ccc(F)cc2F)C1=O (stereo not shown) [Compound 645] , the value recorded as its Plant response rating, Kochia is 0

Given item CN1CC(c2cccc(OC(F)F)c2)C(C(=O)Nc2ccc(F)cc2F)C1=O (stereo not shown) [Compound 617] , the value recorded as its Plant response rating, Kochia is 50

Given item Cc1ccc(C2CNC(=O)C2C(=O)Nc2ccc(F)cc2F)cc1C(F)(F)F (racemic) [Compound 680] , the value recorded as its Plant response rating, Kochia is 0

Given item COc1c(F)ccc(NC(=O)C2C(=O)NCC2c2cccc(OC(F)(F)C(F)F)c2)c1F (racemic) [Compound 540] , the value recorded as its Plant response rating, Kochia is 0

Given item C#Cc1cccc(C2CNC(=O)C2C(=O)Nc2cccc(F)c2F)c1 (racemic) [Compound 677] , the value recorded as its Plant response rating, Kochia is 0
